- System: PC-3
- testDetails: Antiproliferative activity against human PC-3 cells assessed as inhibition of cell growth after 72 hrs by MTT assay
- Type: functional, cell-based
- protocolConditions: PC-3, 72 h
parameter: IC50 (µM)
# value in µM; strip the unit string

| cpdSmiles | parameter | assayValue |
| --- | --- | --- |
| COc1cc(-c2nc(C(N)=O)cc3cc4c(cc23)OCCO4)cc(OC)c1OC | IC50 | 1.18 |

The reported value for "COc1cc(-c2nc(C(N)=O)cc3cc4c(cc23)OCCO4)cc2c1OCCO2" in terms of IC50 is 1.35

The reported value for "COc1cc(-c2nc(C(=O)NO)cc3cc4c(cc23)OCCO4)cc(OC)c1OC" in terms of IC50 is 1.48

The reported value for "COc1cc(-c2nc(C(N)=O)cc3cc4c(cc23)OCCO4)cc2c1OCO2" in terms of IC50 is 1.12

The reported value for "CCCOc1c(OC)cc(-c2nc(C(N)=O)cc3cc4c(cc23)OCCO4)cc1OC" in terms of IC50 is 1.99

The reported value for "COc1cc2c(c(OC)c1OC)-c1ccc(OC)c(=O)cc1[C@@H](NC(C)=O)CC2" in terms of IC50 is 0.05

The reported value for "CCOc1cc(-c2nc(C(N)=O)cc3cc4c(cc23)OCCO4)cc(OC)c1OC" in terms of IC50 is 0.39

The reported value for "COc1cc2c(O)c3c(c(-c4ccc5c(c4)OCO5)c2cc1OC)C(=O)OC3" in terms of IC50 is 0.21
